Experiment: soluble fraction after stress (log2 fold change); higher = more stays soluble; pooled small domains, quantitative proteomics
Settings: stress: 50 degC
MEASURED_ATTRIBUTE: soluble fraction (log2)
Lab note: record just the number, no unit beside it.

Lookup: Give recorded soluble fraction (log2). `HMHPEETVNLILDAAFRLFLEKGYEHTSIQDIIGQLGGLSKGAIYHHFNSKEDILIAVTDRMTA`
Found: -1.81

----------
Experiment: soluble fraction after stress (log2 fold change); higher = more stays soluble; pooled small domains, quantitative proteomics
Conditions: stress: 50 degC
soluble fraction (log2) below -0.4 gives Not fulfilled; soluble fraction (log2) at or above it gives Fulfilled.

Some solved entries appear below for comparison.
> print(dat)
                             residue.string  qualitative.label
1  HMDGQPQLLIKNGQLLVSTALKNGMSANDLMFRLRTEGITDIRYVKRAVLEQNGQLTITQVGDD          Fulfilled
2  HMGFDTVVEKVLGLITSRPMTSRDIQMTLGRSREHTSRLMNRLYKEGLVDRNTSSKPFSYIITEKGREKI          Fulfilled
3  HMIRQETYLLVRKAVGALPVQMRKIIELAMQGKKNAEIAAQLSISEGTVHTLKKTAYKKLRDRLQE      Not fulfilled
4  HMFTDEELEHIRSALIQAGIRLSKELGLQKMSVEKLTAAVGIAKGSFYMFFGSKEDFILEVAEYTGAQ      Not fulfilled
5  HMDILEVLIKKDLAMELLEQLTERQRTVVYLRYFYQLNQKEIADYLGISQQRVSEILSRAKAVLTAYTKK      Not fulfilled
6  HMLKDQSIAQLEKNLDDLKGLMRKMFGSSDVPKITKMISDIESSLANFNQSKANKLIVQTTNYISSKL          Fulfilled

Lookup: Reported soluble fraction (log2) reaches at least -0.4 for `HMAKITERVMGSAALRDYDPNYLPDEVLKALDGYPPFDGYVYKDGILYARVKIGDTFFIIPPI` ?
Found: Not fulfilled

Lookup: Could you please find out whether `HMSPQPPNQEAVRTRILDQAAHLFLTIGYAETTVRRIAGAVGIKAASLYHHFGSKDEVFESILIR` has soluble fraction (log2) that meets -0.4 or exceeds it?
Found: Fulfilled

Lookup: Could you verify whether the entry `HMLEASVYTAEKSGDRLDAFLAEQAGITRSYAQKLIEGGQVTLGGVVPKKNYKLSAGEQVELILPEN` shows soluble fraction (log2) of no less than -0.4?
Found: Fulfilled

Lookup: Decide: is the reported value of soluble fraction (log2) for `HMVRRSERLHALTESLRRSGNRGRTAEQLATEFEVSVRTIKRDLVALEASGLPLWSRPGPGGGYGLLS` equal to or greater than -0.4?
Found: Not fulfilled

Lookup: Decide: is the reported value of soluble fraction (log2) for `HMGAQINSPISGTILKYLVKNGDKITKDQPLVNIESMKMENTIKSDKEGIVNNINFKIGDSVNTADTLLTL` equal to or greater than -0.4?
Found: Fulfilled

Lookup: Is it the case that `HMDQQTKFKTALAALAASAETKDRKLTKADVKEFLEDMDLGEEQMKLVYAYLASKHIHVEGAE` has soluble fraction (log2) reaching or exceeding -0.4?
Found: Fulfilled

Lookup: Reported soluble fraction (log2) reaches at least -0.4 for `HMTGRVKWYDATKGFGFVTSDEGGDVFLPKGALPAGVADLKTGQRIEFGVVDSRKGAQALGVK` ?
Found: Fulfilled

Lookup: Answer whether soluble fraction (log2) of `HMISKYLRIESDILSAIREGRLKPGDKLPGQSEMRRIYNVSAITVRKAFTDLINDGYLVGVRGSGTYVAKR` is greater than or equal to -0.4.
Found: Not fulfilled
